species: Rattus norvegicus; assay: DrugMatrix - Regimen: Daily Repeat; format: toxicity, organism-based, Sprague-Dawley; design: regimen Daily Repeat, gender Male, age 6-8 weeks; conditions: in vivo, po, 10 mg/kg, 120 h, tissue Blood, route oral GAVAGE, dose level Low, time 5 day, vehicle .5 % CMC
The following molecules are shown together with reported ABSOLUTE MONOCYTE values.
The reply should read as a number followed by its unit.

CC(=O)O[C@]1(C(C)=O)CC[C@H]2[C@@H]3C=C(Cl)C4=CC(=O)CC[C@]4(C)[C@H]3CC[C@@]21C [CHLORMADINONE ACETATE] | 46.33 CELLS/uL
NS(=O)(=O)c1cc2c(cc1Cl)NCNS2(=O)=O [HYDROCHLOROTHIAZIDE] | 37.67 CELLS/uL
O=C1CN=C(c2ccccc2)c2cc([N+](=O)[O-])ccc2N1 | 0 CELLS/uL

Consider now this further molecule.
[in] Identify the reported ABSOLUTE MONOCYTE for the following entry. COc1c(C)c2c(c(O)c1C/C=C(\C)CCC(=O)OCCN1CCOCC1)C(=O)OC2 [MYCOPHENOLATE MOFETIL]
[out] 116.67 CELLS/uL
